Data origin: paper PMC2756588

Target: Myo3, P36006
Test: SPOT array
Details: median of control spots 468
Measurement Label: SPOT intensity

Example cases with answers are listed next.
STPQTMRQAPKRPDA; 47
QPWTDQFEKLEKEVS; 0
FYNRTAFQLPGDARV; 1
ITHRLRISIPGITGR; 37

[1] LLGRKRPVMERVVDI
[2] ISPPASPPPEFDFSK
Please indicate which item has the smaller measured SPOT intensity: 1 versus 2 Refer to your chosen entry by its label in the reply.
1
(1: 10, 2: 233)
